Hi there, I'd appreciate the recorded log10(IC50) for every entry that follows.
biological target: TNKS1 (Homo sapiens); construct: GST-tagged Tnks-1 (1023-1327 aa, prepared in-house); made in house; assay: TNKS1 activity ELISA (autoparsylation assay); type: biochemical; conditions: GST-tagged Tnks-1 (1023-1327 aa)
Sequence (O95271 1023-1327): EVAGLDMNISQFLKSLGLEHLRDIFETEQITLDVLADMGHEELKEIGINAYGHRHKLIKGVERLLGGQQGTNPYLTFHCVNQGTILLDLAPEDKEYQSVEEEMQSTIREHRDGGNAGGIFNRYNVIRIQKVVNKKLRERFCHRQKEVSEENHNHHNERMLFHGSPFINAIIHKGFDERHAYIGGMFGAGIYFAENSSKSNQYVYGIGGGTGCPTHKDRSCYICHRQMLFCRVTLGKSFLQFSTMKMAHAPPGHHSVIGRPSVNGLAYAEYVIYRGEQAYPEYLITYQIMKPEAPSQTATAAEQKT
Counter-ions that a name gives are not always drawn.
Hey, these are logged values: log10 of IC50, nM being the unit before logging.

Could you tell me which log10(IC50) is on file for COc1ccc(C(=O)C2CCN(C(=O)CCCc3nn4cccc4c(=O)[nH]3)CC2)cc1F [Compound C136] ? -0.60

Could you tell me which log10(IC50) is on file for Cn1ncc2c(=O)[nH]c(CCCC(=O)N3CCC(C(=O)c4ccc(C(C)(F)F)cc4)CC3)nc21 [Compound C245] ? -0.39

Could you tell me which log10(IC50) is on file for CC(C)(O)c1ccc(C(=O)C2CCN(C(=O)CCCc3nc4c(c(=O)[nH]3)COCC4)CC2)cc1 [Compound C200] ? 2.23

Could you tell me which log10(IC50) is on file for COc1ccc(C(=O)C2CCN(C(=O)CCCc3nc(C(C)C)cc(=O)[nH]3)CC2)cn1 [Compound C256, trifluoroacetate] ? 2.20

Could you tell me which log10(IC50) is on file for CC(C)c1cc(=O)[nH]c(CCCC(=O)N2CCC(C(=O)c3ccc(F)cc3)CC2)n1 [Compound C255, trifluoroacetate] ? 2.04

Could you tell me which log10(IC50) is on file for CC(C)n1cc(C(=O)C2CCN(C(=O)CCCc3cn4cccc4c(=O)[nH]3)CC2)cn1 [Compound C210] ? -0.42

Could you tell me which log10(IC50) is on file for Cn1cc(C(=O)C2CCN(C(=O)CCCc3cn4cncc4c(=O)[nH]3)CC2)cn1 [Compound C207] ? 0.85

Could you tell me which log10(IC50) is on file for N#Cc1ccc(OC2CCN(C(=O)CCCc3nn4cccc4c(=O)[nH]3)CC2)cc1 [Compound C141] ? 2.00

Could you tell me which log10(IC50) is on file for COc1ccc(C(=O)C2CCN(C(=O)CCCc3nc4c(cnn4C)c(=O)[nH]3)CC2)cc1C [Compound C49] ? -0.80

Could you tell me which log10(IC50) is on file for Cc1ccc2c(=O)[nH]c(CCCC(=O)N3CCC(c4cnc(N)c(C#N)c4)CC3)nn12 [Compound C149] ? -0.42

Could you tell me which log10(IC50) is on file for COc1ccc(C(=O)C2CCN(C(=O)CCCc3nc4c(cnn4C)c(=O)[nH]3)CC2)cc1 [Compound C41] ? -0.74

Could you tell me which log10(IC50) is on file for CCn1cc(C(=O)C2CCN(C(=O)CCCc3nn4cccc4c(=O)[nH]3)CC2)cn1 [Compound C214] ? 0.34

Could you tell me which log10(IC50) is on file for COc1ccc(C(=O)C2CCN(C(=O)CCCc3cn4c(C)ccc4c(=O)[nH]3)CC2)cc1C [Compound C3] ? -0.85

Could you tell me which log10(IC50) is on file for Cn1ncc2c(=O)[nH]c(CCCC(=O)N3CCC(C(=O)c4ccc(Cl)cc4)CC3)nc21 [Compound C236] ? -0.32

Could you tell me which log10(IC50) is on file for COc1ccc(C(=O)C2CCN(C(=O)CCCc3nc4c(C)csc4c(=O)[nH]3)CC2)cn1 [Compound C126] ? -0.64
